- tested.on: Neuromedin-U receptor 2 (Homo sapiens)
- Sequence (Q9GZQ4 whole entry): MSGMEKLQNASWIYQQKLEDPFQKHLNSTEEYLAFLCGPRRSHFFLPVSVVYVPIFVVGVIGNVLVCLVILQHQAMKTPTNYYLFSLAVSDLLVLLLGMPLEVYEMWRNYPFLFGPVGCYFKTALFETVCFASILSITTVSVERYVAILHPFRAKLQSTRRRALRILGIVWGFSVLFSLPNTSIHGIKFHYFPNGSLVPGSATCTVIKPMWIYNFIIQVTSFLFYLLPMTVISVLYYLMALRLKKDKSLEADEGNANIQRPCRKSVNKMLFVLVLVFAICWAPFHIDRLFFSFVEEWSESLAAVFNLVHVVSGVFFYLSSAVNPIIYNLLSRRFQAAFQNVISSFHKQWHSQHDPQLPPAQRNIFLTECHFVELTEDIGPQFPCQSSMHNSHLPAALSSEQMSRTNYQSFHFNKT
- protocol.summary: Agonist activity at human NMU2R transfected in HEK293 cells after 7 hrs by luciferase reporter gene assay
- Format: cell-based
- measurement.parameters: read-out: EC50
property: pEC50
Formally, pEC50 is defined as -log10 of the concentration c, with c in mol/L.

Respond only with pEC50 recorded for "O=c1c(OCCO)c(-c2cc(Br)ccc2F)oc2ccccc12" 4.33

Respond only with pEC50 recorded for "O=c1c(O)c(-c2ccccc2F)oc2ccccc12" 4.43

Respond only with pEC50 recorded for "COc1ccc(F)c(-c2oc3ccccc3c(=O)c2O)c1" 3.60

Respond only with pEC50 recorded for C[C@@H]1O[C@@H](OC[C@H]2O[C@@H](Oc3c(-c4ccc(O)c(O)c4)oc4cc(O)cc(O)c4c3=O)[C@H](O)[C@@H](O)[C@@H]2O)[C@H](O)[C@H](O)[C@H]1O [RUTIN] 2.92

Respond only with pEC50 recorded for "O=c1c(O)c(-c2ccc(Br)cc2F)oc2ccccc12" 4.14

Respond only with pEC50 recorded for "O=c1c(O)c(-c2cccc(Cl)c2F)oc2ccccc12" 4.51

Respond only with pEC50 recorded for "O=c1c(O)c(-c2cc(Br)ccc2F)oc2ccccc12" 4.85

Respond only with pEC50 recorded for CNCC(O)c1ccc(O)cc1 (stereo not drawn) [OXEDRINE] 5.18
